Entry source: ChEMBL document CHEMBL5620421

Tested on: HepG2
TEST_DESCRIPTION: Cytotoxicity against human HepG2 cells incubated for 24 hrs by MTT assay
Format: functional, cell-based
PROTOCOL_CONDITIONS: HepG2, 24 h
pIC50: −log10 of the molar value.
# maps each entry to its pIC50

Sample records with pIC50:
O=c1[nH]c(N2CCOCC2)nc2ncn(Cc3ccc(Cl)c(Cl)c3)c12 ... < 3.90
O=c1[nH]c(N2CCSCC2)nc2ncn(Cc3ccc4ccccc4c3)c12 ... < 4.49
Nc1nc(N2CCOCC2)nc2ncn(Cc3ccc4ccccc4c3)c12 ... < 3.90

Kindly review the next molecule as well.
CN(c1nc2ncn(Cc3ccc4ccccc4c3)c2c(=O)[nH]1)C1CC1 has a reported pIC50 of < 3.90
